Reference source: paper PMC8235783

# ASSAY_DETAILS: in vivo
# CONDITION: female, BALB/c, mouse, iv, 20 pmol peptide, total radioactivity, uptake in femur
# Experimental: The biodistribution profile of ^68Ga-DOTA-MGS5 in female BALB/c mice was evaluated for the time points of 5, 20, 60, and 90 min post injection (p.i.). Biodistribution studies evaluating the pharmacokinetics and tissue distribution of ^68Ga-DOTA-MGS5 were performed in 6-week-old female BALB/c mice (n = 12). […] Results were expressed as percentage of injected activity per organ (% IA) and per gram tissue (% IA/g).

[
  {
    "COMPOUND": "CCCC[C@@H](C(=O)N[C@@H](CC(=O)O)C(=O)N[C@@H](Cc1cccc2ccccc12)C(N)=O)N(C)C(=O)[C@H](Cc1c[nH]c2ccccc12)NC(=O)CNC(=O)[C@H](Cc1ccc(O)cc1)NC(=O)[C@H](C)NC(=O)[C@@H](CCC(=O)O)NC(=O)CN1CCN(CC(=O)O)CCN(CC(=O)O)CCN(CC(=O)O)CC1 [^68Ga-DOTA-MGS5, metal not drawn]",
    "MEASURE_UNIT": "%ID/g",
    "tissue uptake at 20 min": 1.75
  }
]

---

# ASSAY_DETAILS: in vivo
# CONDITION: female, BALB/c, mouse, iv, 20 pmol peptide, total radioactivity, uptake in blood

[
  {
    "MOLECULE": "CCCC[C@@H](C(=O)N[C@@H](CC(=O)O)C(=O)N[C@@H](Cc1cccc2ccccc12)C(N)=O)N(C)C(=O)[C@H](Cc1c[nH]c2ccccc12)NC(=O)CNC(=O)[C@H](Cc1ccc(O)cc1)NC(=O)[C@H](C)NC(=O)[C@@H](CCC(=O)O)NC(=O)CN1CCN(CC(=O)O)CCN(CC(=O)O)CCN(CC(=O)O)CC1 [^68Ga-DOTA-MGS5, metal not drawn]",
    "MEASURE_UNIT": "%ID/g",
    "tissue uptake at 5 min": 17.6
  }
]

---

# ASSAY_DETAILS: in vivo
# CONDITION: female, BALB/c, mouse, iv, 20 pmol peptide, total radioactivity, uptake in heart
# Method: The biodistribution profile of ^68Ga-DOTA-MGS5 in female BALB/c mice was evaluated for the time points of 5, 20, 60, and 90 min post injection (p.i.). Biodistribution studies evaluating the pharmacokinetics and tissue distribution of ^68Ga-DOTA-MGS5 were performed in 6-week-old female BALB/c mice (n = 12). […] Results were expressed as percentage of injected activity per organ (% IA) and per gram tissue (% IA/g).

[
  {
    "COMPOUND": "CCCC[C@@H](C(=O)N[C@@H](CC(=O)O)C(=O)N[C@@H](Cc1cccc2ccccc12)C(N)=O)N(C)C(=O)[C@H](Cc1c[nH]c2ccccc12)NC(=O)CNC(=O)[C@H](Cc1ccc(O)cc1)NC(=O)[C@H](C)NC(=O)[C@@H](CCC(=O)O)NC(=O)CN1CCN(CC(=O)O)CCN(CC(=O)O)CCN(CC(=O)O)CC1 [^68Ga-DOTA-MGS5, metal not drawn]",
    "tissue uptake at 5 min [%ID/g]": 5.11
  }
]

---

# ASSAY_DETAILS: in vivo
# CONDITION: female, BALB/c, mouse, iv, 20 pmol peptide, total radioactivity, uptake in muscle

[
  {
    "COMPOUND": "CCCC[C@@H](C(=O)N[C@@H](CC(=O)O)C(=O)N[C@@H](Cc1cccc2ccccc12)C(N)=O)N(C)C(=O)[C@H](Cc1c[nH]c2ccccc12)NC(=O)CNC(=O)[C@H](Cc1ccc(O)cc1)NC(=O)[C@H](C)NC(=O)[C@@H](CCC(=O)O)NC(=O)CN1CCN(CC(=O)O)CCN(CC(=O)O)CCN(CC(=O)O)CC1 [^68Ga-DOTA-MGS5, metal not drawn]",
    "tissue uptake at 1.5 h / %ID/g": 0.18
  }
]

---

# ASSAY_DETAILS: in vivo
# CONDITION: female, BALB/c, mouse, iv, 20 pmol peptide, total radioactivity, uptake in stomach

[
  {
    "MOLECULE": "CCCC[C@@H](C(=O)N[C@@H](CC(=O)O)C(=O)N[C@@H](Cc1cccc2ccccc12)C(N)=O)N(C)C(=O)[C@H](Cc1c[nH]c2ccccc12)NC(=O)CNC(=O)[C@H](Cc1ccc(O)cc1)NC(=O)[C@H](C)NC(=O)[C@@H](CCC(=O)O)NC(=O)CN1CCN(CC(=O)O)CCN(CC(=O)O)CCN(CC(=O)O)CC1 [^68Ga-DOTA-MGS5, metal not drawn]",
    "tissue uptake at 5 min [%ID/g]": 6.63
  }
]

---

# ASSAY_DETAILS: in vivo
# CONDITION: female, BALB/c, mouse, iv, 20 pmol peptide, total radioactivity, uptake in blood
REPORTED_ENDPOINT: tissue uptake at 1.5 h (%ID/g)

[
  {
    "COMPOUND": "CCCC[C@@H](C(=O)N[C@@H](CC(=O)O)C(=O)N[C@@H](Cc1cccc2ccccc12)C(N)=O)N(C)C(=O)[C@H](Cc1c[nH]c2ccccc12)NC(=O)CNC(=O)[C@H](Cc1ccc(O)cc1)NC(=O)[C@H](C)NC(=O)[C@@H](CCC(=O)O)NC(=O)CN1CCN(CC(=O)O)CCN(CC(=O)O)CCN(CC(=O)O)CC1 [^68Ga-DOTA-MGS5, metal not drawn]",
    "VALUE": 0.9
  }
]

---

# ASSAY_DETAILS: in vivo
# CONDITION: female, BALB/c, mouse, iv, 20 pmol peptide, total radioactivity, uptake in lung
# Protocol: The biodistribution profile of ^68Ga-DOTA-MGS5 in female BALB/c mice was evaluated for the time points of 5, 20, 60, and 90 min post injection (p.i.). Biodistribution studies evaluating the pharmacokinetics and tissue distribution of ^68Ga-DOTA-MGS5 were performed in 6-week-old female BALB/c mice (n = 12). […] Results were expressed as percentage of injected activity per organ (% IA) and per gram tissue (% IA/g).

[
  {
    "COMPOUND": "CCCC[C@@H](C(=O)N[C@@H](CC(=O)O)C(=O)N[C@@H](Cc1cccc2ccccc12)C(N)=O)N(C)C(=O)[C@H](Cc1c[nH]c2ccccc12)NC(=O)CNC(=O)[C@H](Cc1ccc(O)cc1)NC(=O)[C@H](C)NC(=O)[C@@H](CCC(=O)O)NC(=O)CN1CCN(CC(=O)O)CCN(CC(=O)O)CCN(CC(=O)O)CC1 [^68Ga-DOTA-MGS5, metal not drawn]",
    "MEASURE_UNIT": "%ID/g",
    "tissue uptake at 20 min": 3.78
  }
]

---

# ASSAY_DETAILS: in vivo
# CONDITION: female, BALB/c, mouse, iv, 20 pmol peptide, total radioactivity, uptake in liver
REPORTED_ENDPOINT: tissue uptake at 20 min (%ID/g)

[
  {
    "MOLECULE": "CCCC[C@@H](C(=O)N[C@@H](CC(=O)O)C(=O)N[C@@H](Cc1cccc2ccccc12)C(N)=O)N(C)C(=O)[C@H](Cc1c[nH]c2ccccc12)NC(=O)CNC(=O)[C@H](Cc1ccc(O)cc1)NC(=O)[C@H](C)NC(=O)[C@@H](CCC(=O)O)NC(=O)CN1CCN(CC(=O)O)CCN(CC(=O)O)CCN(CC(=O)O)CC1 [^68Ga-DOTA-MGS5, metal not drawn]",
    "REPORTED_ENDPOINT": "tissue uptake at 20 min",
    "VALUE": 2.28
  }
]

---

# ASSAY_DETAILS: in vivo
# CONDITION: female, BALB/c, mouse, iv, 20 pmol peptide, total radioactivity, uptake in muscle
REPORTED_ENDPOINT: tissue uptake at 5 min (%ID/g)

[
  {
    "COMPOUND": "CCCC[C@@H](C(=O)N[C@@H](CC(=O)O)C(=O)N[C@@H](Cc1cccc2ccccc12)C(N)=O)N(C)C(=O)[C@H](Cc1c[nH]c2ccccc12)NC(=O)CNC(=O)[C@H](Cc1ccc(O)cc1)NC(=O)[C@H](C)NC(=O)[C@@H](CCC(=O)O)NC(=O)CN1CCN(CC(=O)O)CCN(CC(=O)O)CCN(CC(=O)O)CC1 [^68Ga-DOTA-MGS5, metal not drawn]",
    "VALUE": 2.89
  }
]

---

# ASSAY_DETAILS: in vivo
# CONDITION: female, BALB/c, mouse, iv, 20 pmol peptide, total radioactivity, uptake in muscle

[
  {
    "COMPOUND": "CCCC[C@@H](C(=O)N[C@@H](CC(=O)O)C(=O)N[C@@H](Cc1cccc2ccccc12)C(N)=O)N(C)C(=O)[C@H](Cc1c[nH]c2ccccc12)NC(=O)CNC(=O)[C@H](Cc1ccc(O)cc1)NC(=O)[C@H](C)NC(=O)[C@@H](CCC(=O)O)NC(=O)CN1CCN(CC(=O)O)CCN(CC(=O)O)CCN(CC(=O)O)CC1 [^68Ga-DOTA-MGS5, metal not drawn]",
    "tissue uptake at 1 h (%ID/g)": 0.49
  }
]
